assayed target: SCRIB_3, Q14160
Sequence (Q14160 999-1103): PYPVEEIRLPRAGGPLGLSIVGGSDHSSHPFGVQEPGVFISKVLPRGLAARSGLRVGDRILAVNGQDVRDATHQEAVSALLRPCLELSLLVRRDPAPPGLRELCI
assay overview: holdup assay
Set-up: key: below the threshold = too weak to quantify, mostly under pKd 3.1 to 4
assay conditions: plain residues with an end cap or a label only (N-terminal biotin on a linker: ado-ado)
quantity name: pKd

Below, 4 binders whose answers are already recorded.
[[record]]
binder = "QLGSPTADLA [SIPA1, Q96FS4]"
value_measured = "below the threshold"

[[record]]
binder = "PLPPEEESWV [GAS2L2, Q8NHY3]"
value_measured = 4.99

[[record]]
binder = "PKSNSSKEYV [CLDN7, O95471]"
value_measured = "below the threshold"

[[record]]
binder = "GDSSRKEYFI [GYPC, P04921]"
value_measured = 4.13


Sample KKTPVSRSHL [SLC22A3, O75751] ; pKd observed: below the threshold

Lab note: LVEEEEPMNL [HDAC7, Q8WUI4] gave pKd of below the threshold

Form field pKd, entry PALKNGQYWV [CSPG4, Q6UVK1] : 3.58

Please fill in: pKd reported for EAVTVESTSL [SLC22A11, Q9NSA0] = 4.75

Recorded pKd (binder EFKQTSSFLV [JAM1, Q9Y624] ): below the threshold

Briefly, pKd measured for DYSNLRETDI [ADRA1D, P25100] : 5.27

The measured pKd associated with THREVKFTSL [CD46, P15529] reads 4.8

Measured pKd, GSQSQVETEA [FKBP4, Q02790] : 4.04

The measured pKd associated with PLATCDETSI [SEMA4F, O95754] reads 4.81
